# experimental-protocol: in vivo
# measurement-context: mouse, brain, sc

{"columns": ["compound", "remaining at 4 h"],
 "data": [
  ["CC/C=C\\C/C=C\\C/C=C\\CCCCCCCC(=O)OCC(COC(=O)CCCN)OC(=O)CCCN (stereo not shown) [Compound 26]", "60%"]
]}

* * *

# experimental-protocol: in vivo
# measurement-context: mouse, kidney, sc

{"columns": ["compound", "remaining at 4 h"],
 "data": [
  ["CC/C=C\\C/C=C\\C/C=C\\CCCCCCCC(=O)OCC(COC(=O)CCCN)OC(=O)CCCN (stereo not shown)", "10%"]
]}

* * *

# Tested on: bicuculline-induced epileptic seizures
# experimental-protocol: Delay of onset of bicuculline-induced seizures (anticonvulsant activity)
# Type: in vivo, mouse
# measurement-context: graded 0-5
readout-type: In Vivo Delay of Time of Onset of Bicuculline-induced seizures

{"columns": ["compound", "data-value"],
 "data": [
  ["CC/C=C\\C/C=C\\C/C=C\\CCCCCCCC(=O)OCC(COC(=O)CCCN)OC(=O)CCCCCCC/C=C\\C/C=C\\C/C=C\\CC (stereo not drawn)", 5],
  ["CCCCOC(=O)CCCN", 1],
  ["CC/C=C\\C/C=C\\C/C=C\\CCCCCCCC(=O)OCC(COC(=O)CCCN)OC(=O)CCCN (stereo not drawn)", 4],
  ["NCCCC(=O)O [GABA, gamma-aminobutyric acid, reference compound]", 0],
  ["CC/C=C\\C/C=C\\C/C=C\\CCCCCCCCOC(=O)CCCN", 0],
  ["C[C@@H]1C[C@H]2[C@@H]3CCC4=CC(=O)C=C[C@]4(C)[C@@]3(F)[C@@H](O)C[C@]2(C)[C@@]1(O)C(=O)COC(=O)CCCN [Compound 7, Dexamethasone-21-gamma-aminobutyrate]", 0]
]}

* * *

# experimental-protocol: in vivo
# measurement-context: mouse, brain, sc
readout-type: remaining at 1 h (%)

{"columns": ["compound", "readout-type", "data-value"],
 "data": [
  ["CCCCOC(=O)CCCN [Compound 1, Butyl Ester of GABA]", "remaining at 1 h", 4]
]}

* * *

# experimental-protocol: n-Octanol/water partition coefficient
# Assay type: physicochemical
# measurement-context: n-octanol/water, 5 ml n-octanol / 5 ml water, stirring 18 hours; read-out: KOW: Octanol/Water Partition Coefficient (converted)

{"columns": ["compound", "logP at 18 h"],
 "data": [
  ["C[C@@H]1C[C@H]2[C@@H]3CCC4=CC(=O)C=C[C@]4(C)[C@@]3(F)[C@@H](O)C[C@]2(C)[C@@]1(O)C(=O)COC(=O)CCCN [Compound 7, Dexamethasone-21-gamma-aminobutyrate]", -0.0458]
]}

* * *

# experimental-protocol: Comparative brain/liver uptake of 14C-labeled compounds (Brain Penetration Index)
# measurement-context: Table IX summary; 5-min Brain Penetration Index
Lab note: compare BPI with 70, writing Fulfilled if less and Not fulfilled if equal or more.

{"columns": ["compound", "assigned-label"],
 "data": [
  ["CCCCOC(=O)CCCN [Compound 1, Butyl Ester of GABA]", "Not fulfilled"],
  ["CC/C=C\\C/C=C\\C/C=C\\CCCCCCCC(=O)OCC(COC(=O)CCCN)OC(=O)CCCN (stereo not drawn) [Compound 26]", "Not fulfilled"],
  ["C[C@@H]1C[C@H]2[C@@H]3CCC4=CC(=O)C=C[C@]4(C)[C@@]3(F)[C@@H](O)C[C@]2(C)[C@@]1(O)C(=O)COC(=O)CCCN [Compound 7, Dexamethasone-21-gamma-aminobutyrate]", "Not fulfilled"],
  ["CC/C=C\\C/C=C\\C/C=C\\CCCCCCCC(=O)OCC(COC(=O)CCCN)OC(=O)CCCCCCC/C=C\\C/C=C\\C/C=C\\CC (stereo not drawn) [Compound 28]", "Not fulfilled"],
  ["CC/C=C\\C/C=C\\C/C=C\\CCCCCCCCOC(=O)CCCN [Compound 5, Linolenoyl Ester of y-aminobutyric Acid]", "Fulfilled"],
  ["NCCCC(=O)O [GABA, gamma-aminobutyric acid, reference compound]", "Fulfilled"]
]}

* * *

Each item that follows carries a reported increase of 5-min BPI over GABA.
# experimental-protocol: Comparative brain/liver uptake of 14C-labeled compounds (Brain Penetration Index)
# measurement-context: 5 min after s.c. injection; relative to GABA
readout-type: increase of 5-min BPI over GABA (fold)

{"columns": ["compound", "readout-type", "data-value"],
 "data": [
  ["CC/C=C\\C/C=C\\C/C=C\\CCCCCCCC(=O)OCC(COC(=O)CCCN)OC(=O)CCCN (centres unmarked)", "increase of 5-min BPI over GABA", 90],
  ["CCCCOC(=O)CCCN", "increase of 5-min BPI over GABA", 74],
  ["C[C@@H]1C[C@H]2[C@@H]3CCC4=CC(=O)C=C[C@]4(C)[C@@]3(F)[C@@H](O)C[C@]2(C)[C@@]1(O)C(=O)COC(=O)CCCN [Compound 7, Dexamethasone-21-gamma-aminobutyrate]", "increase of 5-min BPI over GABA", 81],
  ["CC/C=C\\C/C=C\\C/C=C\\CCCCCCCC(=O)OCC(COC(=O)CCCN)OC(=O)CCCCCCC/C=C\\C/C=C\\C/C=C\\CC (centres unmarked)", "increase of 5-min BPI over GABA", 127],
  ["CC/C=C\\C/C=C\\C/C=C\\CCCCCCCCOC(=O)CCCN", "increase of 5-min BPI over GABA", 2]
]}

* * *

# system-name: GABA "receptors"
# experimental-protocol: Inhibition of [3H]GABA binding to synaptic membranes from rat cerebellum
# measurement-context: [3H]GABA (15 nM); synaptic membrane preparations from rat cerebellum
pIC50: −log10 of the molar value.
readout-type: pIC50

{"columns": ["molecule", "data-value"],
 "data": [
  ["CC/C=C\\C/C=C\\C/C=C\\CCCCCCCCOC(=O)CCCN [Compound 5, Linolenoyl Ester of y-aminobutyric Acid]", 4.40]
]}

* * *

# experimental-protocol: in vivo
# measurement-context: mouse, liver, sc
readout-type: remaining at 4 h (%)

{"columns": ["compound", "data-value"],
 "data": [
  ["CC/C=C\\C/C=C\\C/C=C\\CCCCCCCC(=O)OCC(COC(=O)CCCN)OC(=O)CCCN (stereo not shown) [Compound 26]", 30]
]}
